# Format: in vivo, human
# assay.conditions: subject S01; Jsyn / amount in plasma total lipids
recorded.endpoint: F (turnover of esterified n-3 HUFA in plasma) (min⁻¹)

chemical.structure	unit.descriptor	quantitative.result
CC/C=C\C/C=C\C/C=C\C/C=C\C/C=C\C/C=C\CCC(=O)O	min⁻¹	2.6e-06
CC/C=C\C/C=C\C/C=C\C/C=C\C/C=C\CCCC(=O)O	min⁻¹	7.7e-05
CC/C=C\C/C=C\C/C=C\C/C=C\C/C=C\CCCCCCCC(=O)O	min⁻¹	7.4e-05
CC/C=C\C/C=C\C/C=C\C/C=C\C/C=C\CCCCCC(=O)O	min⁻¹	8.8e-05
